ASSAY_OVERVIEW: chemical genetic growth profiling, strain panel (AID 1159580);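 note: tested at 20 µM; growth read once vehicle control cultures reached saturation at 30 °C; 1 = growth at the plate median or of vehicle wells; lower values mean less growth of the strain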
STUDY_CONDITIONS: S. cerevisiae deletion strains, growth OD, locus YDR392W, strain spt3, stronger effect = lower value
Screen size: about 5,500 compounds; about 2,000 (36%) were called active. Not shown: some 18% with an inconclusive outcome. This is one part of the list. Where a SMILES comes first, the peptide text is derived from it.
I'd be grateful if you could share measured normalized growth for these entries.

// below: answered molecules
Reported normalized growth, molecule Oc1cc2c(cc1O)C1c3ccc(O)c(O)c3OCC1(O)C2 (stereo unspecified) : ____
0.991 (inactive)

Entry COC1=CC(=O)C(O)=C/C1=C\C=C\c1ccccc1 : reported normalized growth = ?
0.0929 (active)

Your task in this section: give normalized growth for each listed record.
1. COC1=CC(=O)C(C(=O)c2ccccc2)=CC1=O
2. COC(=O)[C@H](Cc1ccccc1)NC(=O)[C@@H](N)CC(=O)O (H-Asp-Phe-OMe)
3. Oc1ccc2c(c1)OCC1(O)Cc3cc(O)c(O)cc3C21 (stereo unspecified)

["0.98 (inactive)", "0.958 (inactive)", "1.03 (inactive)"]

Quick one: normalized growth for CCCCOc1cc(C(=O)NCCN(CC)CC)c2ccccc2n1 ?
1.05 (inactive)

* * *

ASSAY_OVERVIEW: chemical genetic growth profiling, strain panel (AID 1159580);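 note: tested at 20 µM; growth read once vehicle control cultures reached saturation at 30 °C; 1 = growth at the plate median or of vehicle wells; lower values mean less growth of the strain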
STUDY_CONDITIONS: S. cerevisiae deletion strains, growth OD, locus YDL134C, strain PPH21, stronger effect = lower value
The whole screen tested about 5,500 compounds, of which about 2,000 (36%) were called active. Roughly 18% stayed inconclusive and do not appear here. The list shows a part of the results.
For each record, write down the corresponding normalized growth.
Answers are plain numbers.

# count of solved cases: 5
Can you look up the measured normalized growth of O=C(O[C@@H]1Cc2c(O)cc(O)cc2O[C@@H]1c1cc(O)c(=O)c2c(O)c(O)cc([C@H]3Oc4cc(O)cc(O)c4C[C@H]3O)c2c1)c1cc(O)c(O)c(O)c1 for me?
0.184

I have this molecule here, O=C(O[C@@H]1Cc2c(O)cc(O)cc2O[C@@H]1c1cc(O)c(=O)c2c(O)c(O)cc([C@H]3Oc4cc(O)cc(O)c4C[C@H]3OC(=O)c3cc(O)c(O)c(O)c3)c2c1)c1cc(O)c(O)c(O)c1 , and I need its recorded normalized growth.
0.741

I am curious: what normalized growth value has been reported for O=C(O)C1=C[C@@H](O)[C@@H](O)[C@H](O)C1 ?
0.999

For Cc1cc(C)c(CSCCNC(=O)Nc2ccc(F)cc2F)c(C)c1 , what is its reported normalized growth?
1.01

What normalized growth value was documented for this molecule, COc1ccc2c3c1OC1C(O)CC=C4C(C2)N(C)CCC431 (centres undefined) ?
1.01

Hi team, please reply with normalized growth for each item in this list.
1. COc1c2ccoc2cc2oc(=O)ccc12
2. Cc1ccccc1OCC(O)CO (centres undefined)
3. COc1ccccc1NC(=O)NCCSCc1ccccc1Cl
4. C=C[C@H]1CN2CC[C@H]1C[C@@H]2[C@@H](OC(=O)OCC)c1ccnc2ccc(OC)cc12

1: 0.703; 2: 1.04; 3: 0.978; 4: 0.991

* * *

ASSAY_OVERVIEW: chemical genetic growth profiling, strain panel (AID 1159580);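 note: tested at 20 µM; growth read once vehicle control cultures reached saturation at 30 °C; 1 = growth at the plate median or of vehicle wells; lower values mean less growth of the strain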
STUDY_CONDITIONS: S. cerevisiae deletion strains, growth OD, locus YNL248C, strain rpa49, stronger effect = lower value
The campaign covered roughly 5,500 compounds. About 2,000 (36%) were called active. About 18% were inconclusive and are not listed. Some of the results follow.
OBSERVATION_TYPE: normalized growth
One number for each entry.

# lookup: normalized growth of COc1ccccc1/C=C\C(=O)O
1

Would you mind telling me what normalized growth value was observed for COC1=CC(=O)C(O)=C/C1=C\C=C\c1ccccc1 ?
0.0693

Which measured normalized growth value corresponds to CC(C)(C)NCC(O)c1cc(O)cc(O)c1 (stereo unspecified) ?
0.923

Consider the compound O=C(O)C1=C[C@@H](O)[C@@H](O)[C@H](O)C1 and give its measured normalized growth.
0.965

Would you kindly share the measured normalized growth for COc1ccc(Cl)cc1C(=O)NCCc1ccc(S(=O)(=O)NC(=O)NC2CCCCC2)cc1 ?
1.01

Shifting focus to the compound that follows.
Data request, read-out normalized growth, for CO[C@@]1(NC(=O)C(C(=O)O)c2ccc(O)cc2)C(=O)N2C(C(=O)O)=C(CSc3nnnn3C)CO[C@@H]21 (stereo partly specified)
1
